Exercise: state measured MIC for each of the compounds provided.
- System: Escherichia coli
- TEST PROTOCOL: Antimicrobial activity against Escherichia coli
- Assay type: functional

(Q) Look at this compound and give its reported MIC. CC1(c2ccc(-c3ccccc3)cc2)CC(c2ccc(-c3ccccc3)cc2)=Cc2ncnc(N)c21 (configuration not stated)
(A) ≥ 189 µM

(Q) Would you kindly repeat that for CC1=C(/C=C/C2=Cc3ncnc(N)c3C(C)(/C=C/C3=C(C)CCCC3(C)C)C2)C(C)(C)CCC1 (configuration not stated) ?
(A) ≥ 189 µM

(Q) Next compound: CC1(c2ccc3ccccc3c2)CC(c2ccc3ccccc3c2)=Cc2ncnc(N)c21 (configuration not stated)
(A) ≥ 189 µM

(Q) Further, for CC1(c2ccc(Br)s2)CC(c2ccc(Br)s2)=CC(N)=C1C#N (configuration not stated) ?
(A) ≥ 189 µM

(Q) Can you check CC1(c2ccc(Br)cc2)CC(c2ccc(Br)cc2)=CC(N)=C1C#N (configuration not stated) next?
(A) ≥ 189 µM

(Q) Same read-out for CCCCCCC1=Cc2ncnc(N)c2C(C)(CCCCCC)C1 (configuration not stated) ?
(A) ≥ 189 µM

(Q) Now the compound CC1(c2ccc(-c3ccccc3)cc2)CC(c2ccc(-c3ccccc3)cc2)=CC(N)=C1C#N (configuration not stated)
(A) ≥ 189 µM
